TARGET: CteC36–276 (Chromobacterium violaceum, UniProt Q7NY09)
Sequence (Q7NY09 36-276): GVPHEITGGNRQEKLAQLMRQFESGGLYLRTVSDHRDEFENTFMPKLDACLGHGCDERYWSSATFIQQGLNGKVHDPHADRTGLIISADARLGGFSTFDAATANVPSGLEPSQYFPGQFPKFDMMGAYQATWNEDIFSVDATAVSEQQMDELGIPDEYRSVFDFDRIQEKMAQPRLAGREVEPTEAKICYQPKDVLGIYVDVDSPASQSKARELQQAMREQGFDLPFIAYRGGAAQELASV
MEASURED_ATTRIBUTE: pKd
Reminder that pKd means the negative base-10 logarithm of the concentration expressed in mol/L.

q: # query: pKd of entry NC(=O)c1ccc[n+]([C@@H]2O[C@H](COP(=O)(O)OP(=O)(O)OC[C@H]3O[C@@H](n4cnc5c(N)ncnc54)[C@H](O)[C@@H]3O)[C@@H](O)[C@H]2O)c1
a: 3.91
